biological target: HDAC6 (Homo sapiens (Human)); settings: read-out: HDAC6 IC50
Sequence (Q9UBN7 whole entry): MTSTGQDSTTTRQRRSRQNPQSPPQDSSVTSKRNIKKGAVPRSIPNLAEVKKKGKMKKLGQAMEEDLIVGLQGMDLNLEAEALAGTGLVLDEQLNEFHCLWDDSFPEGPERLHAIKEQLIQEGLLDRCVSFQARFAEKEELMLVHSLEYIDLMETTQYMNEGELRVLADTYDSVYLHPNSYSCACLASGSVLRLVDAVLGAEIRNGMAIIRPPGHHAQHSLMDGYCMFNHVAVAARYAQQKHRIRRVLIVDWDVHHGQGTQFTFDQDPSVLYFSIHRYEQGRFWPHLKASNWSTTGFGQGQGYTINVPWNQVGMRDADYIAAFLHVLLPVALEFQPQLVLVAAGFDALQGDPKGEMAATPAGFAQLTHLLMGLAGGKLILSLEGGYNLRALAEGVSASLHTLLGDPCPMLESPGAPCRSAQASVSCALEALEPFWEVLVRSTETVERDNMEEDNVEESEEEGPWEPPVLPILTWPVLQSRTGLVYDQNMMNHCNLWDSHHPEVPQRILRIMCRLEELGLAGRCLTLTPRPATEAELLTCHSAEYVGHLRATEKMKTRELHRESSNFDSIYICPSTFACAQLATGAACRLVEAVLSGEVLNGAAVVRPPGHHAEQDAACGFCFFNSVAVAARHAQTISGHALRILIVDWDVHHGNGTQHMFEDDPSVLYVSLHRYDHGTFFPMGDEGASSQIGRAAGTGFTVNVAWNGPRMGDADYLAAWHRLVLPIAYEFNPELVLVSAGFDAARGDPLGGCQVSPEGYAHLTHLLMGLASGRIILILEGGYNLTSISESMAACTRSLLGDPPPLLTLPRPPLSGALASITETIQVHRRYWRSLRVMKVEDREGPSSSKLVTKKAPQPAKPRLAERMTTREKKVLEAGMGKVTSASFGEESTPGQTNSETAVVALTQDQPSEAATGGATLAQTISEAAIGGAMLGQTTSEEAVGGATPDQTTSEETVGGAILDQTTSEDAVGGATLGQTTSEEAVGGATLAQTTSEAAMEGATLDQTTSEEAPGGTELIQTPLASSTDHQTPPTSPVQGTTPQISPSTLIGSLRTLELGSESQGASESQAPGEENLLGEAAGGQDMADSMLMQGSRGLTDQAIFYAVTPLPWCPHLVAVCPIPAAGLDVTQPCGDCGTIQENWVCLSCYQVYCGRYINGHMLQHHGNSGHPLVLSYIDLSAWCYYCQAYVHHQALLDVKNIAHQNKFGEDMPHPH
QUANTITY NAME: IC50 (nM)

Here's what some known entries look like.
>  <COMPOUND>
Cc1cc(C2(Nc3ncc(C(=O)NO)cn3)CC2)ccc1F [Compound 142]

>  <EXPERIMENTAL TARGET>
HDAC6 (Homo sapiens (Human))

>  <VALUE>
6

$$$$
>  <COMPOUND>
O=C(NO)c1cnc(NCc2ccccc2C(F)(F)F)nc1 [Compound 38]

>  <EXPERIMENTAL TARGET>
HDAC6 (Homo sapiens (Human))

>  <VALUE>
7

$$$$
>  <COMPOUND>
O=C(NO)c1cnc(NCc2c(Cl)cccc2Cl)nc1 [Compound 48]

>  <EXPERIMENTAL TARGET>
HDAC6 (Homo sapiens (Human))

>  <VALUE>
7

$$$$
>  <COMPOUND>
CC(C)(Nc1ncc(C(=O)NO)cn1)c1ccc(F)c(F)c1 [Compound 76]

>  <EXPERIMENTAL TARGET>
HDAC6 (Homo sapiens (Human))

>  <VALUE>
4

$$$$
>  <COMPOUND>
O=C(NO)c1cnc(Nc2cc(F)cc(F)c2)nc1 [Compound 18]

>  <EXPERIMENTAL TARGET>
HDAC6 (Homo sapiens (Human))

>  <VALUE>
13

$$$$

(a) O=C(NO)c1cnc(NCCc2ccc(Cl)cc2)nc1 [Compound 44]
(b) O=C(NO)c1cnc(NCc2ccc(C(F)(F)F)cc2)nc1 [Compound 37]
(c) O=C(NO)c1cnc(Nc2cccc(C(F)(F)F)c2)nc1 [Compound 22]
(d) Cc1cccc(C)c1CNc1ncc(C(=O)NO)cn1 [Compound 54]
Task: Please produce an ascending ranking of these compounds based on IC50. List the labels, following the order given in the request.
Output: c, b, a, d

====

target: UniProtKB Q92769; assay: HDAC enzyme assay, HDAC2; conditions: read-out: HDAC2 IC50
QUANTITY NAME: IC50 (nM)

>  <MOLECULAR STRING>
O=C(NO)c1cnc(NCc2ccccc2OC(F)(F)F)nc1

>  <QUANTITY NAME>
IC50

>  <VALUE>
346

$$$$
>  <MOLECULAR STRING>
Cc1cc(F)ccc1C(C)(C)Nc1ncc(C(=O)NO)cn1

>  <QUANTITY NAME>
IC50

>  <VALUE>
8010

$$$$
>  <MOLECULAR STRING>
O=C(NO)c1cnc(Nc2cccc(C(F)(F)F)c2)nc1

>  <QUANTITY NAME>
IC50

>  <VALUE>
446

$$$$

(A) O=C(NO)c1cnc(NC2(c3c(F)cccc3F)CC2)nc1
(B) O=C(NO)c1cnc(NC2(c3ccc(F)c(F)c3)CC2)nc1
(C) O=C(NO)c1cnc(NCc2ccccn2)nc1
(D) O=C(NO)c1cnc(NC2(c3cccc(C(F)(F)F)c3)CC2)nc1
(E) Cc1cc(C(C)(C)Nc2ncc(C(=O)NO)cn2)ccc1F
Task: Sort the 5 compounds by IC50; largest first, smallest last. List the labels, following the order given in the request.
Output: E, C, B, D, A
(E: 669 nM, C: 313 nM, B: 62 nM, D: 32 nM, A: 6 nM)

(A) O=C(NO)c1cnc(NC2(c3cc(F)cc(F)c3)CCOCC2)nc1
(B) O=C(NO)c1cnc(NC2c3ccccc3-c3ccccc32)nc1
Task: Looking only at measured IC50, which entry is lower, A or B ? Answer by quoting the chosen item's label.
Output: A

====

biological target: UniProtKB O15379; assay: HDAC enzyme assay, HDAC3; conditions: ratio HDAC3/HDAC6
QUANTITY NAME: HDAC3 fold over HDAC6 IC50 (selectivity for HDAC6)

>  <MOLECULAR STRING>
O=C(NO)c1cnc(NC2(c3cc4ccccc4s3)CC2)nc1

>  <VALUE>
(18x)

$$$$
>  <MOLECULAR STRING>
O=C(NO)c1cnc(NCc2cccs2)nc1

>  <VALUE>
(92x)

$$$$

====

molecular target: HDAC3 (Homo sapiens (Human)); assay: HDAC enzyme assay, HDAC3; details: ratio HDAC3/HDAC6
Sequence (O15379 whole entry): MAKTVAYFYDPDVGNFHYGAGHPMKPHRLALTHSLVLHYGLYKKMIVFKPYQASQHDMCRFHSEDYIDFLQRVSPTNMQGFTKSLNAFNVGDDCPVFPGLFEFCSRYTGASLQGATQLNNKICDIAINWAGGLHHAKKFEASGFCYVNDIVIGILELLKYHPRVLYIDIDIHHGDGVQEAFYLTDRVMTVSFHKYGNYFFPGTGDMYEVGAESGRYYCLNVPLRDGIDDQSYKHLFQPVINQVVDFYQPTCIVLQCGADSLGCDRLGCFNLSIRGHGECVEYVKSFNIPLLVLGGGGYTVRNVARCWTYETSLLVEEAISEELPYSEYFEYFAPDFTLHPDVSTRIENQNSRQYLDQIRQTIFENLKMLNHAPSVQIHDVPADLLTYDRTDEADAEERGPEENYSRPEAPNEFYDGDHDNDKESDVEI
Sequence (Q9Y618 395-489 partner): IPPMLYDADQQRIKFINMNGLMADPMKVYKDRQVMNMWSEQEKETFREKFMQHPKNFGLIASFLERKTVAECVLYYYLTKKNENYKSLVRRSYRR
QUANTITY NAME: HDAC3 fold over HDAC6 IC50 (selectivity for HDAC6)

>  <MOLECULAR STRING>
Cc1cc(C2(Nc3ncc(C(=O)NO)cn3)CC2)ccc1F

>  <VALUE>
(11x)

$$$$
>  <MOLECULAR STRING>
Cc1ccc(C2(Nc3ncc(C(=O)NO)cn3)CC2)cc1

>  <VALUE>
(51x)

$$$$

====

target: UniProtKB Q9UBN7; settings: read-out: HDAC6 IC50
QUANTITY NAME: IC50 (nM)

Here's what some known entries look like.
>  <COMPOUND>
O=C(NO)c1cnc(NC2(c3ccc(C(F)(F)F)c(F)c3)CC2)nc1 [Compound 137]

>  <VALUE>
4

$$$$
>  <COMPOUND>
COc1cc(Nc2ncc(C(=O)NO)cn2)cc(C(F)(F)F)c1 [Compound 21]

>  <VALUE>
5

$$$$
>  <COMPOUND>
O=C(NO)c1cnc(NCCc2ccccc2)nc1 [Compound 41]

>  <VALUE>
4

$$$$
>  <COMPOUND>
O=C(NO)c1cnc(Nc2c(F)c(F)cc(F)c2F)nc1 [Compound 16]

>  <VALUE>
21

$$$$

(a) O=C(NO)c1cnc(Nc2cc(F)cc(C(F)(F)F)c2)nc1 [Compound 26]
(b) O=C(NO)c1cnc(Nc2cc(Cl)cc(C(F)(F)F)c2)nc1 [Compound 25]
(c) O=C(NO)c1cnc(Nc2cc(Cl)ccc2Cl)nc1 [Compound 12]
(d) O=C(NO)c1cnc(NCc2ccc(-c3ccccc3)cc2)nc1 [Compound 107]
Task: Sort the 4 compounds by IC50; largest first, smallest last. List the labels, following the order given in the request.
Output: c, b, a, d
(c: 15 nM, b: 10 nM, a: 5 nM, d: 2 nM)

(I) O=C(NO)c1cnc(NC2(c3ccco3)CC2)nc1 [Compound 99]
(II) CC(Nc1ncc(C(=O)NO)cn1)(c1ccc(F)cc1)c1ccc(F)cc1 [Compound 96]
Task: // max by IC50 over [ I , II ] Answer by quoting the chosen item's label.
Output: II

====

target: UniProtKB Q92769; test: HDAC enzyme assay, HDAC2; conditions: ratio HDAC2/HDAC6
QUANTITY NAME: HDAC2 fold over HDAC6 IC50 (selectivity for HDAC6)

>  <MOLECULAR STRING>
O=C(NO)c1cnc(NC2(c3cc(F)cc(F)c3)CCOCC2)nc1

>  <EXPERIMENTAL TARGET>
UniProtKB Q92769

>  <VALUE>
(34x)

$$$$

====

target: HDAC2 (Homo sapiens (Human), UniProt Q92769); test: HDAC enzyme assay, HDAC2; conditions: ratio HDAC2/HDAC6
Sequence (Q92769 whole entry): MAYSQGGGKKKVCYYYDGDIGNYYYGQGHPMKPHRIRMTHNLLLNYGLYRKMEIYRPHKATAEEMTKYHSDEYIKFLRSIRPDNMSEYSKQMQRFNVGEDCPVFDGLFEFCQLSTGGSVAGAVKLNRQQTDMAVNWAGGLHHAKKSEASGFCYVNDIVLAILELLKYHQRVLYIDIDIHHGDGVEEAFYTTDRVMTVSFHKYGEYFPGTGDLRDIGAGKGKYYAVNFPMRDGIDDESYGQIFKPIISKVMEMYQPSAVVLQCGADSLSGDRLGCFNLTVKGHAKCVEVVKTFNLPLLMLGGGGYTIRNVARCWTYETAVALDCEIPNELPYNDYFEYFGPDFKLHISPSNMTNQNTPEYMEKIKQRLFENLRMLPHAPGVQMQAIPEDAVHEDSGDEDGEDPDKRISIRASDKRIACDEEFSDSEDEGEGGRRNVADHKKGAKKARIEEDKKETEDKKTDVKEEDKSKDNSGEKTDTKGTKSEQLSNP
QUANTITY NAME: HDAC2 fold over HDAC6 IC50 (selectivity for HDAC6)

>  <MOLECULAR STRING>
O=C(NO)c1cnc(NCc2c(CO)cccc2CO)nc1

>  <VALUE>
(55x)

$$$$

====

target: HDAC1 (Homo sapiens (Human), UniProt Q13547); test: HDAC enzyme assay, HDAC1; conditions: read-out: HDAC1 IC50
Sequence (Q13547 whole entry): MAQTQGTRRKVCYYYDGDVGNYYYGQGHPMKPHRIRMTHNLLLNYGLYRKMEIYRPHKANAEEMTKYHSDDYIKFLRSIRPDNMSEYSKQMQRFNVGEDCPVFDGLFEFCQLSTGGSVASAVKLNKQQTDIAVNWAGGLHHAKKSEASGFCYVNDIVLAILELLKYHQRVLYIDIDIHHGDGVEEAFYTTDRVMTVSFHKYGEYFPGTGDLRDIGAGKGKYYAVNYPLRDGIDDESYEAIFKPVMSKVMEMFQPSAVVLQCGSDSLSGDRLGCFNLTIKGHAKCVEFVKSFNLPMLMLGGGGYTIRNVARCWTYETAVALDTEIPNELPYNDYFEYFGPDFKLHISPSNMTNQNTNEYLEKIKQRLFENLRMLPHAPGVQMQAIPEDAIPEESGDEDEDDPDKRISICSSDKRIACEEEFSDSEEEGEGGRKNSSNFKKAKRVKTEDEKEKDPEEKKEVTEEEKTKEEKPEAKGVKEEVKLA
pIC50: −log10 of the molar value.
QUANTITY NAME: pIC50

Here's what some known entries look like.
>  <COMPOUND>
O=C(NO)c1cnc(NCc2ccccc2C(F)(F)F)nc1 [Compound 38]

>  <QUANTITY NAME>
pIC50

>  <VALUE>
6.33

$$$$
>  <COMPOUND>
CC(C)(Nc1ncc(C(=O)NO)cn1)c1ccccc1F [Compound 71]

>  <QUANTITY NAME>
pIC50

>  <VALUE>
6.30

$$$$
>  <COMPOUND>
O=C(NO)c1cnc(NC2(c3cccc(OC(F)(F)F)c3)CC2)nc1 [Compound 125]

>  <QUANTITY NAME>
pIC50

>  <VALUE>
7.74

$$$$
>  <COMPOUND>
CC(C)(Nc1ncc(C(=O)NO)cn1)c1ccc(F)cc1 [Compound 68]

>  <QUANTITY NAME>
pIC50

>  <VALUE>
6.12

$$$$
>  <COMPOUND>
O=C(NO)c1cnc(NCc2ccccn2)nc1 [Compound 108]

>  <QUANTITY NAME>
pIC50

>  <VALUE>
6.66

$$$$

(1) CC(C)(Nc1ncc(C(=O)NO)cn1)c1cc(C(F)(F)F)cc(C(F)(F)F)c1 [Compound 92]
(2) O=C(NO)c1cnc(NC2(c3cccc(F)c3)CC2)nc1 [Compound 87]
Task: Looking only at measured pIC50, which entry is lower, 1 or 2 ? Answer by quoting the chosen item's label.
Output: 1

(P) O=C(NO)c1cnc(Nc2ccc(Cl)c(Cl)c2)nc1 [Compound 2]
(Q) O=C(NO)c1cnc(Nc2c(Cl)cccc2Cl)nc1 [Compound 20]
Task: Looking only at measured pIC50, which entry is lower, P or Q ? Answer by quoting the chosen item's label.
Output: Q
